# Test system: CEM cells HIV-1 protection, formazan growth assay
# measurement-notes: NCI AIDS Antiviral Assay
# measurement-parameters: measured here: growth of uninfected CEM cells
# Method: The ability of compounds to protect human CEM cells from HIV-1 infection is measured as a screen for new compounds capable of inhibiting the HIV virus. Five concentrations of drug were tested on uninfected and infected cells and cell growth was measured using a soluble formazan assay. […] Compounds that provided at least 50% protection were retested. Compounds that provided at least 50% protection on retest were listed as moderately active. […]
pIC50: −log10 of the molar value. Where a SMILES comes first, the peptide text is derived from it. [ ]: non-standard residue; d: D form. The star is where a group is joined. ξ: configuration not given here. ξD = NC(CC(=O)O)C(=O)O; Boc = CC(C)(C)OC(=O)*; Aib = CC(C)(N)C(=O)O; OBn = c1ccc(CO*)cc1
reported-metric: pIC50

>>> result("CCCCCn1cnc2c1S(=O)(=O)N(C)C(NC(=O)c1ccccc1)=N2")
"< 3.70"
>>> result("Cc1cc(O)c(C=O)c2c1C(=O)Oc1c(CO)c(O)c3c(c1O2)C(O)OC3=O (stereo not drawn)")
"< 4.24"
>>> result("CC1(C)SC(C)(C)N2C(=O)[C@H]3N(C(=O)[C@@H]21)C(C)(C)SC3(C)C")
"< 4.12"
>>> result("O=c1[nH]nnc2ccccc12")
"< 3.61"
>>> result("CCOC(=O)C(Cc1c2ccccc2cc2ccccc12)(NC(C)=O)C(=O)OCC")
"< 3.70"
>>> result("CC(C)(C)N=c1n(C(C)(C)C)oc(=O)n1-c1ccccc1")
"< 4.30"
>>> result("CC(C)(C)OC(=O)NC(CC(=O)OCc1ccccc1)C(=O)NC(C)(C)C(N)=O (stereo not drawn) (Boc-[ξD](OBn)-[Aib]-NH2)")
"< 3.70"
>>> result("O=C(O)CC1OCC=C2CN3CCC45c6ccccc6NC4C1C2CC35 (stereo not drawn)")
"< 4.07"
